Molecular target: beta-catenin/TCF4 engagement (Homo sapiens, UniProt P35222)
Construct: expressed in transfected cells; host or cells: HEK293
Sequence (P35222 1-781): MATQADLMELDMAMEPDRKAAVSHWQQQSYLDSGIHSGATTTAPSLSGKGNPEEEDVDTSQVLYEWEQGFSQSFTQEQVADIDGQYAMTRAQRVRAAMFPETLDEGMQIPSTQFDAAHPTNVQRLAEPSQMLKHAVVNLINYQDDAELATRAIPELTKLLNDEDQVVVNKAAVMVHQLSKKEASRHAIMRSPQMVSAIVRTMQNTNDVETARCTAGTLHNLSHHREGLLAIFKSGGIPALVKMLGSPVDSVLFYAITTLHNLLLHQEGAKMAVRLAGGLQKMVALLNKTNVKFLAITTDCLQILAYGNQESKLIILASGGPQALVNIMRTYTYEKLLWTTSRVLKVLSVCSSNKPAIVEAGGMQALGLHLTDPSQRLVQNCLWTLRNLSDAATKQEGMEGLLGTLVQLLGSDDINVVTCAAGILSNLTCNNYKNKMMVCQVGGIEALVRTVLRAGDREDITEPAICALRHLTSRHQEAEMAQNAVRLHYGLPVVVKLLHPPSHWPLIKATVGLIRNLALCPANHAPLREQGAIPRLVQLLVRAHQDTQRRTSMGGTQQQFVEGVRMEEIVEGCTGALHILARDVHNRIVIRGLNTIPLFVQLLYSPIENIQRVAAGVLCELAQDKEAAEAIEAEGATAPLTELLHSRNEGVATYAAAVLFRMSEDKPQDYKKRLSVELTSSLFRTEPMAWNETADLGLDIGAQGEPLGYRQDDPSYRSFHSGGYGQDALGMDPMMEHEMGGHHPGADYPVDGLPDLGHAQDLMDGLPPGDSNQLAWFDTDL
Assay: Nano-BRET target engagement assay (B-cat-Halo & TCF4-Luc in HEK293 cells)
Type: cell-based
Conditions: absolute IC50; read-out: NanoBRET Abs IC50
pIC50: −log10 of the molar value.
Everything with pIC50 lower than 5 is label 0; everything else, including exactly 5, is label 1.

compound	group.label
CC(=O)N1CCC[C@]12CC=CCCCC1(CCCC=CCCCOC(=O)N3CC[C@@](C(=O)N[C@@H](Cc4ccccc4C(F)(F)F)C(=O)N[C@H](C(=O)N[C@@H](C)C(N)=O)[C@H](C)c4csc5ccccc45)(C3)NC(=O)[C@H](CC(C)C)NC(=O)[C@H](Cc3ccccc3)NC(=O)[C@H](C)NC(=O)[C@H](CCC(N)=O)NC(=O)[C@H](Cc3cccc(C(=O)O)c3)NC(=O)[C@H](CC(=O)O)NC1=O)NC(=O)[C@H](CC(C)(C)C)NC(=O)[C@H](CC(=O)O)NC2=O (some centres unmarked) [I-2459]	label 0
CC(=O)N1CCC[C@]12CC=CCCCC1(CCCC=CCCCOC(=O)N3CC[C@@](C(=O)N[C@@H](Cc4ccsc4)C(=O)N[C@@H](Cc4csc5ccccc45)C(=O)N[C@@H](C)C(N)=O)(C3)NC(=O)[C@H](Cc3ccccc3)NC(=O)[C@H](Cc3ccccc3)NC(=O)[C@H](C)NC(=O)[C@H](C)NC(=O)[C@H](Cc3cccc(C(=O)O)c3)NC(=O)[C@H](CC(=O)O)NC1=O)NC(=O)[C@H](CC(C)(C)C)NC(=O)[C@H](CC(=O)O)NC2=O (some centres unmarked) [I-2259]	label 1
CC(=O)N1CCC[C@]12CC=CCCCC1(CCCC=CCCCOC(=O)N3CC[C@@](C(=O)N[C@@H](Cc4ccsc4)C(=O)N[C@@H](Cc4csc5ccccc45)C(=O)N[C@@H](CCC(N)=O)C(N)=O)(C3)NC(=O)[C@H](CC(C)C)NC(=O)[C@H](Cc3ccccc3)NC(=O)[C@H](C)NC(=O)[C@H](C)NC(=O)[C@H](CCN(CC(=O)O)C(=O)CCCN(C)C)NC(=O)[C@H](CC(=O)O)NC1=O)NC(=O)[C@H](CC(C)(C)C)NC(=O)[C@H](CC(=O)O)NC2=O (some centres unmarked) [I-2243]	label 0
CC(=O)N1CCC[C@]12CC=CCCCC1(CCCC=CCCCOC(=O)N3CC[C@@](C(=O)N[C@@H](Cc4ccccc4Cl)C(=O)N[C@@H](Cc4csc5ccccc45)C(=O)N[C@@H](C(N)=O)[C@H](C)O)(C3)NC(=O)[C@H](CC(C)C)NC(=O)[C@H](Cc3ccccc3)NC(=O)[C@H](C)NC(=O)[C@H](C)NC(=O)[C@H](CC(=O)O)NC(=O)[C@H](CC(=O)O)NC1=O)NC(=O)[C@H](CC1CCCCC1)NC(=O)[C@H](CC(=O)O)NC2=O (some centres unmarked) [I-1140]	label 0
CC(=O)N1CCC[C@]12CC=CCCCC1(CCCC=CCCCOC(=O)N3CC[C@@](C(=O)N[C@@H](Cc4ccccc4C(F)(F)F)C(=O)N[C@H](C(=O)N[C@@H](CCC(N)=O)C(N)=O)[C@H](C)c4ccc5ccccc5c4)(C3)NC(=O)[C@H](CC(C)C)NC(=O)[C@H](Cc3ccccc3)NC(=O)[C@H](C)NC(=O)[C@H](C)NC(=O)[C@H](Cc3cccc(C(=O)O)c3)NC(=O)[C@H](CC(=O)O)NC1=O)NC(=O)[C@H](CC(C)(C)C)NC(=O)[C@H](CC(=O)O)NC2=O (some centres unmarked) [I-2462]	label 1
